System: Fibroblast
Assay: Multiplex assay against human fibroblast
Format: toxicity, cell-based
Settings: 24 h, 10 µM, compound concentration 10 uM, replicate 2
Measured Population Apoptotic (%), listed per entry for reference.
attribute-measured: Population Apoptotic (%)

compound=COc1ccccc1N1CCN(C[C@@H](C(=O)NC(C)(C)C)c2ccccc2)CC1.Cl.Cl readout_units=% experimental_value=40
compound="Cl.N=C(N)NC(=O)Cc1c(Cl)cccc1Cl [GUANFACINE HYDROCHLORIDE]" readout_units=% experimental_value=25
compound=CCCCC(=O)N(Cc1ccc(-c2ccccc2-c2nnn[nH]2)cc1)[C@H](C(=O)O)C(C)C readout_units=% experimental_value=35
compound="COC[C@@H](c1ccc(C(F)(F)F)cc1)N1CCN(C2(C)CCN(C(=O)c3c(C)ncnc3C)CC2)C[C@@H]1C.O=C(O)/C=C\\C(=O)O [VICRIVIROC MALEATE]" readout_units=% experimental_value=42
compound=N#Cc1c(Oc2cccc(OS(=O)(=O)CCCC(F)(F)F)c2)cccc1C(F)(F)F readout_units=% experimental_value=61
compound=Cc1c(CC(=O)O)c2cccnc2n1Cc1ccc(S(C)(=O)=O)cc1C(F)(F)F readout_units=% experimental_value=31
compound=CC(C)COc1ccc(CNC(=O)N(Cc2ccc(F)cc2)C2CCN(C)CC2)cc1 readout_units=% experimental_value=69
compound=CC[C@@H](C)Nc1nc(C)nc2c(-c3ccc(OC)nc3C)c(C)nn12 readout_units=% experimental_value=38
compound=CCCOc1ccc2[nH]cc(C3=CCNCC3)c2n1.Cl readout_units=% experimental_value=50
compound=Cc1noc(-c2ccc(-c3ccc(CC(=O)O)cc3)cc2)c1NC(=O)O[C@H](C)c1ccccc1Cl readout_units=% experimental_value=32
compound=O=C1[C@H](Cc2ccc(O)cc2)N2C(=O)CCN(C(=O)NCc3ccccc3)[C@H]2CN1Cc1cccc2ccccc12 readout_units=% experimental_value=64
compound="Br.CS(=O)(=O)Nc1c(O)ccc2c1CCCC2C1=NCCN1 (stereo unspecified)" readout_units=% experimental_value=41
compound="O=C(NCCN1CCC(n2c(=O)[nH]c3cc(Cl)ccc32)CC1)c1ccc(F)cc1 [HALOPEMIDE]" readout_units=% experimental_value=41
compound=CCc1cc2cc(NS(=O)(=O)c3ccc(C#N)cc3)ccc2n(CC)c1=O readout_units=% experimental_value=32
compound=CN[C@@H](C)C(=O)N[C@H](C(=O)N1CCC[C@H]1C(=O)Nc1snnc1-c1ccccc1)C1CCCCC1 readout_units=% experimental_value=41
compound=NCCc1cn(S(=O)(=O)c2c(Cl)nc3sccn23)c2ccccc12.O=C(O)C(=O)O readout_units=% experimental_value=72
compound="Cl.NCCc1ccc(O)c(O)c1 [DOPAMINE HYDROCHLORIDE]" readout_units=% experimental_value=47
compound=CC(/C=C1\SC(=S)N(CCCC(=O)Nc2ccc(C(=O)O)c(O)c2)C1=O)=C\c1ccccc1 readout_units=% experimental_value=53
compound=COc1cccc2c1c(NS(=O)(=O)c1ccc(Cl)s1)nn2Cc1cccc(CNC(=O)C(C)(C)O)c1 readout_units=% experimental_value=50
compound=CC(C)(C)c1cc(NC(=O)Nc2ccc(-c3cn4c(n3)sc3cc(OCCN5CCOCC5)ccc34)cc2)no1 readout_units=% experimental_value=39
compound="CCCCCC(O)/C=C/[C@H]1C(=O)CC(O)C1C/C=C\\CCCC(=O)O (stereo partly specified)" readout_units=% experimental_value=33
compound=CN1CCN(c2cc(-c3ccccc3)nc(N)n2)CC1 readout_units=% experimental_value=29
compound=CCCCC1=NC2(CCCC2)C(=O)N1Cc1ccc(-c2ccccc2-c2nnn[nH]2)cc1 readout_units=% experimental_value=45
compound=N#Cc1cc(F)cc(-c2nc(-c3ccc(F)cn3)no2)c1 readout_units=% experimental_value=35
compound=CN(C)C(=O)Cn1cc(-c2ccc(-c3cncc4ccccc34)cc2)cn1 readout_units=% experimental_value=41
compound=C[C@H](N)COC(=O)[C@@H](CCCCN)NC(=O)Cc1c(-c2ccc3ccccc3c2)[nH]c2c1ccc1ccccc12 readout_units=% experimental_value=50
